Cited source for all entries: PubChem BioAssay

MEASUREMENT_PROTOCOL: small-molecule binders of probe aLefty1, primary screen, biochemical, small-molecule microarray, 635/667 nm fluorescence (AID 1153);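 also: score merges spot fluorescence with signal-to-noise ratio from the scanned slide images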
EXPERIMENTAL_CONDITIONS: higher = more signal
Record true (1) whenever composite z-score is at 0.1 or higher; record false (0) when lower.

Some entries whose results are on file:
# COMPOUND, DISCRETE_LABEL
records = [
    ("C=CCC(OC(C)=O)[C@@H]1[C@@H](N(Cc2ccc(-c3cccc(C(F)(F)F)c3)o2)C(=O)c2ccc(-c3ccccc3)cc2)c2cc(OCCCO)ccc2N1C(=O)c1ccc2ccccc2n1 (stereo partly drawn)", "false (0)"),
    ("CCCCC(O)C1C=CC2C(=O)N(c3ccccc3)C(=O)C2N1Nc1ccc(C(C)C)cc1 (stereo not drawn)", "true (1)"),
]

Next item in the queue.
Please indicate if the recorded composite z-score for COc1ccc(CCNC(=O)[C@@H]2c3ccccc3C(=O)N(Cc3cc(C(F)(F)F)cc(C(F)(F)F)c3)[C@H]2c2ccc(CO)cc2)cc1 meets or exceeds 0.1.
true (1)
